run-description: folding stability dG unfold from trypsin proteolysis; higher = more stable
Assignment: determine reported folding stability dG unfold for the given sequences.
Reply with just the number (in kcal/mol).

Task: Reported folding stability dG unfold, sequence SAGGSAGGSAMPEEVKLRVVKVKVKEVEVETDENGEKRTRVKAEVVEEREITLPKEELEKLSAGGSAGGSAG [r3_121_TrROS_Hall] : ____
Output: 2.35

Task: Now consider SAGGSAGGSAGWLMIMFPIPPNADNVRIKWPDGPTQEHEMEPGSPVMIMIPPGNIKIEVDSAGGSAGGSAGG [r11_52_TrROS] .
Output: 1.13

Task: Now consider SKTVVVEINGYLIVVEEKKLENGETYYTVKIVNKKTKKVIEVKAKSKEEAEKAVLEALRKLFPDEELKKLSA [r9_749_TrROS_Hall] .
Output: 3.05

Task: Now consider SNVHIHVEPDPDGRVKITLMMPPDNPDEFAEEIAENLGYPVKITDIEPFPFKKNGKPREYYMIEIEIRLPSA [r9_431_TrROS] .
Output: 1.15

* * *

run-description: folding stability dG unfold (combined trypsin and chymotrypsin); higher = more stable
experimental-readout: folding stability dG unfold (kcal/mol)
Reply with just the number (in kcal/mol).

Task: Reported folding stability dG unfold, sequence SAGGSAGGSGSMSTPVTEEITLTLTRTTEDGTEVVITIKVKVVKDPTSDVVTVTEVLSETVEPSAGGSAGGS [r12_358_JUSTAS] : ____
Output: 2.37

Task: Now consider SAGGSMITLTFPAPREVAVPAIEAAAEKHGVTILSVEFDPATGRLTVTVDSSLPEEEVRAMVAAVLASAGGS [r8_338_JUSTAS] .
Output: 4.57

Task: Now consider SEITIKLKVENLSEEELKKLAEELAKEGLFEITSIKVENGYVTITIKKKPKPPPKPEKKKVVFDKDGKPVSA [r9_830_TrROS_Hall] .
Output: 2.2

Task: Now consider SGPIAELVKAHPGVPVEDLAKAIVDALKAQLPKDVPITVDAEVTPDGIKLNVTVEGDTEPFTFPFVVKPGSA [r9_805_TrMRF] .
Output: 1.2

Task: Now consider SAGGSAGGSAGNKDYPVIEVTYPFPPGAPASDIKDFAEPFGFESIEFDDNGTVKVYFYLPSAGGSAGGSAGG [r11_961_TrROS] .
Output: 0.825

Task: Now consider SAGGSAGGSKKKNKPAPPVLVVKVEIVKIELSDEELEAIKKNKEKIKEIYLIKIEVTLVEPEESAGGSAGGS [r12_196_TrROS_Hall] .
Output: 1.94

Task: Now consider SAGGSPSMSPEELAKREKERILEELRKKGGSKTIPMKVEITVPDEKGNTTKYNIEINITVEVPEDKLSAGGS [r16_550_JUSTAS] .
Output: 0.974

* * *

run-description: folding stability dG unfold from trypsin proteolysis; higher = more stable
Would you please tag the item Yes when its folding stability dG unfold is 2 kcal/mol or above, and No when it is below?

Task: Test whether the sequence SAGPKIVEVKPSNGKLEITVEIPVPGAPVLFLNPAKNATIESDPNGRITITLDSEGEYEIIIGNPVFDSAGG [r19_227_TrMRF] records folding stability dG unfold of 2 kcal/mol or higher.
Output: No

Task: Now consider SAGGSAGGSAPGKSITITFLFIWPDGWILVMKITFDPDGPGDIDIEWQWIPIPPPEPPPEDPSAGGSAGGSA [r18_409_TrROS] .
Output: Yes

Task: Now consider SAGGSAGGSAGMVINVTVTLKNSTGTITITLPVPPDLLDEVLKELKEKPDYEVVSVDTSPSAGGSAGGSAGG [r11_692_JUSTAS] .
Output: Yes

Task: Now consider SAGGMKIEFDEKTKRITITLPDGKKVEIELKDGRKVEITFERVDGKLKVVIKHKNEEEALELAKKLLSAGGS [r16_623_TrROS_Hall] .
Output: No

Task: Now consider SAGGKLLEELNVEKVEVVEVKEFSLPPLPLLVLLPTVTVTFKDGSKVKFKVLFLYDPSNPKPIVVAGSAGGS [r8_422_TrMRF] .
Output: Yes

Task: Now consider SAGGSAMKIEEIEKVELKKNENGELTAKIIIKDKKTNKYIEIEITVKPGMTLEEIKKLAEELLKKLSAGGSA [r15_181_TrROS_Hall] .
Output: Yes

Task: Now consider SAGGSAGGSGVTIPIWYKMDPGQPVPTAEEIQNIINELGFPIKDIKVQYHPDNGYVRAEITVKSAGGSAGGS [r12_1052_TrROS] .
Output: No
